For each record, write down the corresponding Neutralization PSV IC50.
# SYSTEM TESTED: VP1 capsid protein on BKV pseudovirions of genotype IVc2 (A-66H; AB369093) (BK virus genotype IVc2 (A-66H))
# TEST SUMMARY: cell-based or functional assay
# output: bare number, implied unit µg/mL

Prompt: Look up Neutralization PSV IC50: antibody E7P5 (antibody, V domains shown) VH: QVQLQESGPGLVKPSETLSLTCTVSGGSIRNSYWSWIRQSPGKGLEWIGYIYYTGSTNSNPSLKSRLTVSVHMSQNQISLKLNSVTPADTAVYYCAQGGGSGDLHYWGQGTLVTVSS VL: QSALTQPASVSGSPGQSITISCTGTRSDVGGYNYVSWYQQHPGKAPKLIIYDISSRPSGVSNRFSASKSGNTASLTISGLQAEDEADYYCISFATGYTWVFGGGTSLTVL
Completion: 0.0056

Prompt: Look up Neutralization PSV IC50: antibody B7P6 (antibody, V domains shown) VH: EVQLVQSGAELKKPGESLKISCKGSGFTFTNYWIAWVRQMPGKGLEWMGIIYPDDSDARYSPSFEGQVTISVDKSISTAYLQWSSLKASDTAIYYCARGGFCSGSVCYNPAWFDLWGQGTLVTVSS VL: DIQMTQSPSSLSASVGDRVTITCRASQTINTYLNWYLQKPGKAPKLLISDASSLETGVPSRFSGSGSGTDFTLTISSLQPDDFATYYCQQSYSTPLTFGGGTKVEIK
Completion: 0.121
